Just for reference, PubChem BioAssay (NCI) is where these values come from.

System: MOLT-4 leukemia
Experiment notes: NCI-60 one-dose screen, 48 h (100 = growth as untreated, 0 = no growth, -100 = all killed)
Condition summary: 10 µM unless noted
Compounds without any hit were thinned out: in the full panel of roughly 83,000, 20% have a hit.
Result type: growth (%)
Express your answer in %, writing the number without its unit.

Ask: Name the recorded growth for "COc1cc(-c2ccc(NC(=O)CC(C)=O)c(OC)c2)ccc1NC(=O)CC(C)=O" .
Reply: 89.5

Ask: Name the recorded growth for "O=S(=O)(O)c1cccc2cccnc12" .
Reply: 100

Ask: Name the recorded growth for "O=C1C=CC(=O)C2=C1CCCC2" .
Reply: 31.1

Ask: Name the recorded growth for "Cc1ccc(NC(=S)N2CCOCC2)cc1C" .
Reply: 100

Ask: Name the recorded growth for O=C(OCC1CCCO1)c1ccc([N+](=O)[O-])cc1 (stereo unspecified) .
Reply: 101

Ask: Name the recorded growth for "Cn1c(=O)c2nc3c(=O)n(C)c(=O)n(C)c3nc2n(C)c1=O" .
Reply: 84.9

Ask: Name the recorded growth for "O=C(O)c1cccc(-n2ncc(Cl)c(Cl)c2=O)c1" .
Reply: 96.5

Ask: Name the recorded growth for "Cc1ccc(C)c2c1CCC2=O" .
Reply: 121

Ask: Name the recorded growth for COC1=C(OC)C(=O)C(SC/C=C(\C)CCCC(C)CCCC(C)CCCC(C)C)=CC1=O (stereo unspecified) .
Reply: 10.4

Ask: Name the recorded growth for "CCCCCCCCCCCCCCCCOc1ccccc1NC(=O)CC(C)=O" .
Reply: 84.8

Ask: Name the recorded growth for "C=C1C(=O)C2CCN1CC2" .
Reply: 78.2

###

Tested on: SNB-75 CNS
Experiment notes: NCI-60 one-dose screen, 48 h (100 = growth as untreated, 0 = no growth, -100 = all killed)
Condition summary: 10 µM unless noted
The panel holds about 83,000 compounds, 20% with a hit somewhere; the sample as a whole holds those more often.
Rule: measured growth below 90% gets 1; anything equal to or greater than 90% gets 0.

Ask: Given the entry "COc1cc(C(=O)O)c(O)c(C(C)(C)C)c1" , would its reported growth be below 90%?
Reply: 0

Ask: Given the entry "O=C1CSc2ccccc2N1" , would its reported growth be below 90%?
Reply: 1

Ask: Given the entry "CCCCCCCCCCC(=O)CCCCCCCCCC" , would its reported growth be below 90%?
Reply: 0

Ask: Given the entry "CC1(C)OC(=O)CC1=O" , would its reported growth be below 90%?
Reply: 0

Ask: Given the entry "O=Cc1c(O)c2ccccc2[nH]c1=O" , would its reported growth be below 90%?
Reply: 1

Ask: Given the entry "COc1cccc(C(=O)NNC(=O)c2cccc3ccccc23)c1" , would its reported growth be below 90%?
Reply: 0

Ask: Given the entry "O=C(O)c1cc(I)ccc1O" , would its reported growth be below 90%?
Reply: 1

Ask: Given the entry "COc1cc(OC)c2cc(C(=O)c3ccc(C#N)cc3)c(=O)oc2c1" , would its reported growth be below 90%?
Reply: 1

Ask: Given the entry "Cc1[nH]c(=S)[nH]c(=O)c1C" , would its reported growth be below 90%?
Reply: 0

Ask: Given the entry "CC(C)Sc1ncnc2nc[nH]c12" , would its reported growth be below 90%?
Reply: 0

Ask: Given the entry "CCN(C(C)=O)c1ccc([N+](=O)[O-])cc1" , would its reported growth be below 90%?
Reply: 0

Ask: Given the entry "CC(C)=CCC[C@@H](C)[C@H]1CC[C@@]2(C)C3=C(CC[C@]12C)[C@@]1(C)CC[C@H](O)C(C)(C)[C@@H]1CC3" , would its reported growth be below 90%?
Reply: 0

Ask: Given the entry "Oc1cccnc1CN1CCCC1" , would its reported growth be below 90%?
Reply: 0

Ask: Given the entry "CCCOCc1cn[nH]n1" , would its reported growth be below 90%?
Reply: 0

###

Tested on: U251 CNS
Experiment notes: NCI-60 one-dose screen, 48 h (100 = growth as untreated, 0 = no growth, -100 = all killed)
Condition summary: 10 µM unless noted
Compounds without any hit were thinned out: in the full panel of roughly 83,000, 20% have a hit.
Result type: growth (%)
Express your answer in %, writing the number without its unit.

Ask: Name the recorded growth for "FC(F)(F)c1cc(NC2=NCCN=C(Nc3cc(C(F)(F)F)cc(C(F)(F)F)c3)SS2)cc(C(F)(F)F)c1" .
Reply: 23.3

Ask: Name the recorded growth for "CC(=O)Nc1ccc(C(=O)c2ccc(S(=O)(=O)Nc3ccccc3)cc2)cc1" .
Reply: 91.9

Ask: Name the recorded growth for "CCOC(OCC)C(=O)c1ccccc1" .
Reply: 95

Ask: Name the recorded growth for "CC(CCC#N)(CCC#N)C(=O)c1ccccc1" .
Reply: 109

Ask: Name the recorded growth for "COc1ccc(/C=N/NC(=O)COCC(=O)N/N=C/c2ccc(OC)cc2)cc1" .
Reply: 96.2

Ask: Name the recorded growth for "O=C(O)CSCC(=O)Nc1cc(C(F)(F)F)ccc1Cl" .
Reply: 106

Ask: Name the recorded growth for CN(C)c1ccc(O)c2c1CC1CC3C(N(C)C)C(=O)C(C(N)=O)=C(O)C3(O)C(=O)C1=C2O (stereo not drawn) .
Reply: 25.7

Ask: Name the recorded growth for "Cc1cc2c3ccc(C)[n+](C)c3ccc2n1C" .
Reply: 12.4

Ask: Name the recorded growth for "Nc1ccc2ccccc2c1-c1c(N)ccc2ccccc12" .
Reply: 21.5

Ask: Name the recorded growth for "CN(CCCN(C)CCC1CCCCC1)CCC1CCCCC1" .
Reply: 11.1

Ask: Name the recorded growth for "COc1ccc(NNS(=O)(=O)O)cc1" .
Reply: 98

Ask: Name the recorded growth for "CSc1nc2[nH]ncc2c(=O)[nH]1" .
Reply: 103

Ask: Name the recorded growth for "Cc1ccc(S(N)(=O)=O)cc1Cl" .
Reply: 103

Ask: Name the recorded growth for "O=C1NC(=O)/C(=C\c2ccncc2)N1" .
Reply: 100

Ask: Name the recorded growth for "CCCCCCCCCCCCSC1=C(Cl)C(=O)C(OC)=C(OC)C1=O" .
Reply: 26

Ask: Name the recorded growth for "C[n+]1c(/C=C\C=C\N2CCCCC2)sc2ccccc21" .
Reply: 14.5

Ask: Name the recorded growth for "Cc1ccc(C(C)C)c(OCC(=O)O)c1" .
Reply: 96.1

Ask: Name the recorded growth for "Ic1cccs1" .
Reply: 96.3

Ask: Name the recorded growth for CC(=O)OC/C(C)=C\CC(C)COC(C)=O (stereo not drawn) .
Reply: 101

Ask: Name the recorded growth for "O=Cc1ccc(F)cc1" .
Reply: 101

Ask: Name the recorded growth for "C=CCS(C)(=O)=O" .
Reply: 90.4

Ask: Name the recorded growth for "CCOc1ccc(NC(=S)N2CCC(CCCC3CCN(C(=S)Nc4ccc(OCC)cc4)CC3)CC2)cc1" .
Reply: 95.1

Ask: Name the recorded growth for "CC(C)c1ccccc1NC(=O)N1CCC(C(C)C)CC1" .
Reply: 98.1

Ask: Name the recorded growth for "CN1C(=O)NC(c2ccc(Cl)cc2)(c2ccc(Cl)cc2)C1=O" .
Reply: 94.9

Ask: Name the recorded growth for "S=c1nc2[nH]c3ccccc3c2n[nH]1" .
Reply: 105

Ask: Name the recorded growth for "Cc1cc(C(=O)c2ccccc2)cc(C)c1O" .
Reply: 98.1

Ask: Name the recorded growth for "Cn1c(=O)c2[nH]c(CC(=O)O)nc2n(C)c1=O" .
Reply: 103

Ask: Name the recorded growth for "C1C[S+]2CC[S+]1CC2" .
Reply: 96.4

Ask: Name the recorded growth for "CCCNS(=O)(=O)c1ccc(Cl)cc1" .
Reply: 99.3

Ask: Name the recorded growth for "NNC(=O)c1ccccc1N" .
Reply: 106

Ask: Name the recorded growth for C=CC(=O)OC1CCC(C(C)(C)CC)CC1 (stereo not drawn) .
Reply: 116

Ask: Name the recorded growth for "Nc1nnc2cc(F)ccc2n1" .
Reply: 110

Ask: Name the recorded growth for "CCOC(=N)CC(=O)Nc1cccc(C)c1Cl" .
Reply: 103

Ask: Name the recorded growth for CC(CC(CCC(=O)O)(c1ccccc1)c1ccccc1)N(C)C (stereo not drawn) .
Reply: 92.3

Ask: Name the recorded growth for "C=C1C(=O)C2CCN1CC2" .
Reply: 100

Ask: Name the recorded growth for "NC(=S)N/N=C/c1ccc(Cl)cc1" .
Reply: 99.7

Ask: Name the recorded growth for "O=C(c1ccc(Cl)cc1)N1CCCCC1" .
Reply: 94.7

Ask: Name the recorded growth for "OCCc1ccc(Cl)cc1" .
Reply: 92.3

Ask: Name the recorded growth for "COc1ccc(C(=O)C(=O)c2ccccc2)cc1" .
Reply: 101

Ask: Name the recorded growth for "CC(C)N(C(=O)c1ccccc1)C(C)C" .
Reply: 95.9

Ask: Name the recorded growth for "C1=NCCc2ccccc21" .
Reply: 92.9

Ask: Name the recorded growth for "CC(C)(CC(=O)O)CC(=O)O" .
Reply: 109

Ask: Name the recorded growth for "CCOC(C=O)OCC" .
Reply: 97.4
